System: Metabotropic glutamate receptor 5 (Rattus norvegicus, UniProt P31424) | Read-out: pKi | Origin: multiple publications
Sequence (P31424 whole entry): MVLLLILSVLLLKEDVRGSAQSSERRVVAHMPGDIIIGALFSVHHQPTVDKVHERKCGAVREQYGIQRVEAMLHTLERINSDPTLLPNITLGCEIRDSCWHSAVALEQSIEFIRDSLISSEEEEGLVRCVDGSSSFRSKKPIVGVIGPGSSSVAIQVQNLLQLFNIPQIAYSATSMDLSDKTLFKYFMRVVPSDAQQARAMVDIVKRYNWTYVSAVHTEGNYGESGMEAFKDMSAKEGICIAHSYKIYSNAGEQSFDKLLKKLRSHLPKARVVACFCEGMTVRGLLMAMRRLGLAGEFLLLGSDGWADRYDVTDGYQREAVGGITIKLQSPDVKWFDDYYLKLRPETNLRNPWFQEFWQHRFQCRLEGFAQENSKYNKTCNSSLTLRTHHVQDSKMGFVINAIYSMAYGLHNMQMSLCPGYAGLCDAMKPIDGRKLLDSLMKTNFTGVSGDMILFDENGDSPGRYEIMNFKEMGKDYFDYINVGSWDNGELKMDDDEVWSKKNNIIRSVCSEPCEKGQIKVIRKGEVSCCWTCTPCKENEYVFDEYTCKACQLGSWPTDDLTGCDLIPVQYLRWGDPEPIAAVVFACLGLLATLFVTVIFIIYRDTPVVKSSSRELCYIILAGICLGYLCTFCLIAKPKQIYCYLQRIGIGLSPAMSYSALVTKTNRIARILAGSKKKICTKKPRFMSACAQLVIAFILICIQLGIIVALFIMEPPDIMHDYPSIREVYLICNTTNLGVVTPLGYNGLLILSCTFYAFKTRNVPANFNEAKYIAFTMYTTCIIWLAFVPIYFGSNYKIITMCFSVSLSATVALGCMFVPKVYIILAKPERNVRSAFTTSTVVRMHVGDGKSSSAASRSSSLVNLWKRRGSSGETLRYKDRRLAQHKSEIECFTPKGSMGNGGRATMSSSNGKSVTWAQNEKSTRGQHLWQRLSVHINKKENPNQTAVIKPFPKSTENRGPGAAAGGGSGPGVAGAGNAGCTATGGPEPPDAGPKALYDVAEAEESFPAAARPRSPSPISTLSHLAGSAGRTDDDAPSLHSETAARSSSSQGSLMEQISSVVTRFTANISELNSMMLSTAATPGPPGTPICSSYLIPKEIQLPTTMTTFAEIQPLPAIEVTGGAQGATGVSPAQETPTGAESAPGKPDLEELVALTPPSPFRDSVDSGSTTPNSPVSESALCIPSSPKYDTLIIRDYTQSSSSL
Field pKi (float): negative decimal logarithm of the concentration in molar.

- compound: "Cc1nc(C#Cc2ccc(-c3ccccn3)nc2)cs1"
  observable: "pKi"
  measured: 7.80

Ask | What measured pKi is associated with O=C(C1CC1c1ccc(N2CCOCC2)nc1)C12CC3CC(CC(C3)C1)C2 (stereo unspecified) on Metabotropic glutamate receptor 5 (Rattus norvegicus, UniProt P31424)?
Reply | 4.56

Ask | API: value(readout= pKi, system= Metabotropic glutamate receptor 5 (Rattus norvegicus, UniProt P31424), query= "N#Cc1cc(OCC2CC2)cc(-n2nnc(-c3ccccn3)n2)c1" )
Reply | 6.57

Ask | # query: pKi | item "O=S(=O)(c1ccc(Cl)c(F)c1)c1cnc2cc(F)ccc2c1-c1ccc(F)cc1" | system: Metabotropic glutamate receptor 5 (Rattus norvegicus, UniProt P31424)
Reply | 8.28

---

Values of Ki for Metabotropic glutamate receptor 5 (Rattus norvegicus), collected from a number of published sources:
Provide the reading as a plain figure in nM.

Ask | GET /values?readout=Ki&system=Metabotropic glutamate receptor 5 (Rattus norvegicus)&item= O=C(c1ccco1)N1CSCC1c1nc(-c2cccc(Cl)c2)no1 (racemic)
Reply | 195

Ask | Return Ki measured with Metabotropic glutamate receptor 5 (Rattus norvegicus) given this compound: "COc1cccc(C#Cc2cccc(C#N)c2)n1"
Reply | 200

Ask | // map "COc1ccnc(-c2ccc3ccc(C)nc3c2)n1" to recorded Ki (system: Metabotropic glutamate receptor 5 (Rattus norvegicus))
Reply | 1550

---

Dear all, I have gathered published pKi values for Metabotropic glutamate receptor 5 (Rattus norvegicus); the list follows.
pKi (log units): -log10 of the concentration in mol/L.

- compound: "N#Cc1cccc(-c2nc(-c3ccccn3)no2)c1"
  assayed.target: "Metabotropic glutamate receptor 5 (Rattus norvegicus)"
  measured: 6.31
- compound: "CN(C)c1ccc(S(=O)(=O)c2sc3ncccc3c2-c2ccc(Cl)cc2)cc1"
  assayed.target: "Metabotropic glutamate receptor 5 (Rattus norvegicus)"
  measured: 7.28
- compound: "O=C(Nc1cc(-c2ccccc2)nn1-c1ccccc1Cl)c1ccccc1"
  assayed.target: "Metabotropic glutamate receptor 5 (Rattus norvegicus)"
  measured: 6.30
- compound: "N#Cc1cc(F)cc(S(=O)(=O)c2sc3nc(F)ccc3c2-c2cccc(F)c2)c1"
  assayed.target: "Metabotropic glutamate receptor 5 (Rattus norvegicus)"
  measured: 8.60
- compound: "CNc1cc(-c2csc(N(C)C(=O)c3ccc(F)cc3)n2)ncn1"
  assayed.target: "Metabotropic glutamate receptor 5 (Rattus norvegicus)"
  measured: 5.68

Ask | Request body: readout pKi, system Metabotropic glutamate receptor 5 (Rattus norvegicus), query "N#Cc1cc(F)cc(S(=O)(=O)c2sc3ncccc3c2-c2cccc(F)c2)c1" . Return the value.
Reply | 8.66

Ask | Kindly state the measured pKi obtained for "Cc1ccc(S(=O)(=O)c2sc3ncccc3c2-c2ccc(Cl)cc2)cc1Cl" with Metabotropic glutamate receptor 5 (Rattus norvegicus).
Reply | 8.17

Ask | Please provide the recorded pKi for "N#Cc1cc(F)cc(S(=O)(=O)c2sc3ncc(N)cc3c2-c2cc(F)cc(F)c2)c1" , tested on Metabotropic glutamate receptor 5 (Rattus norvegicus).
Reply | 8.62

Ask | Form: Entry = "N#Cc1cccc(-n2nnc(-c3cscn3)n2)c1" | System = Metabotropic glutamate receptor 5 (Rattus norvegicus) | pKi = ____
Reply | 6.80

Ask | Query for Metabotropic glutamate receptor 5 (Rattus norvegicus): what pKi does the record show for "CCc1cccc(C#Cc2cccc(C#N)c2)n1" ?
Reply | 8.47

Ask | Lab note: need pKi with Metabotropic glutamate receptor 5 (Rattus norvegicus) for entry "O=C(CCc1ccccc1)c1sc2ncccc2c1-c1ccccc1" , please look it up.
Reply | 6.14

Ask | Hello, I am looking for reported pKi with Metabotropic glutamate receptor 5 (Rattus norvegicus) for "O=C(Nc1cc(-c2ccccc2)nn1-c1ccccc1)c1ccc([N+](=O)[O-])cc1" . Could you help?
Reply | 6.60

Ask | GET /values?readout=pKi&system=Metabotropic glutamate receptor 5 (Rattus norvegicus)&item= "O=S(=O)(c1ccc(F)c(F)c1)c1cnc2cc(F)ccc2c1-c1ccc(Cl)cc1"
Reply | 7.77

Ask | Please provide the recorded pKi for "N#Cc1cc(F)cc(S(=O)(=O)c2sc3ncccc3c2-c2cnccc2Cl)c1" , tested on Metabotropic glutamate receptor 5 (Rattus norvegicus).
Reply | 8.03

Ask | So what pKi did "Cc1nc2cc(-c3ccc(OCc4ccccc4)c(C#N)c3)ccc2s1" get with Metabotropic glutamate receptor 5 (Rattus norvegicus)?
Reply | 5.15

Ask | What reported pKi corresponds to "Fc1cc(-c2ccncc2)cc(-n2nnc(-c3ccccn3)n2)c1" on Metabotropic glutamate receptor 5 (Rattus norvegicus)?
Reply | 6.24

Ask | Record lookup: for Metabotropic glutamate receptor 5 (Rattus norvegicus), what pKi belongs to "O=C(Cc1ccc(F)cc1)c1sc2ncccc2c1-c1ccc(F)cc1" ?
Reply | 6.85

Ask | Provide the documented pKi with Metabotropic glutamate receptor 5 (Rattus norvegicus) as the system for "N#Cc1ccc(F)cc1O/N=C1/C=C(C#Cc2ccccn2)CCC1"
Reply | 7.13

Ask | Item "N#Cc1cc(F)cc(C#Cc2csc(N)n2)c1" with Metabotropic glutamate receptor 5 (Rattus norvegicus) - pKi?
Reply | 9.60

Ask | API: value(readout= pKi, system= Metabotropic glutamate receptor 5 (Rattus norvegicus), query= "Nc1cnc2sc(S(=O)(=O)c3ccc(Cl)cc3)c(-c3ccccc3F)c2c1" )
Reply | 7.24

Ask | Record "O=C(CCc1ccc(F)cc1)c1sc2ncccc2c1-c1ccc(F)cc1" : what is its pKi with Metabotropic glutamate receptor 5 (Rattus norvegicus)?
Reply | 6.74

Ask | Record "N#Cc1cccc(C#Cc2cccc(F)n2)c1" : what is its pKi with Metabotropic glutamate receptor 5 (Rattus norvegicus)?
Reply | 6.82

Ask | Write down the reported pKi of "O=C(C#Cc1ccccc1)N1CCN(c2ccccc2[N+](=O)[O-])CC1" , test system: Metabotropic glutamate receptor 5 (Rattus norvegicus).
Reply | 8.74
